# System: NCI/ADR-RES ovarian
# test_summary: NCI-60 one-dose screen, 48 h
# test_context: 10 µM
The panel holds about 83,000 compounds, 20% with a hit somewhere; the sample as a whole holds those more often. Activity calls are given as the source filed them. Rule for the calls: active = growth percent below 10; inactive = the rest.
Write down the outcome that applies. Available outcomes: T (active), F (inactive)

Input line: Recorded test call requested for COc1cc(C2C=C(c3ccc(Cl)c(Cl)c3)N=C3SC(C)=CN32)cc(OC)c1OC (centres undefined)
Output line: F

Input line: Recorded test call requested for Clc1ccc(-c2nc(-c3cccs3)cn3ccnc23)cc1
Output line: F

Input line: Recorded test call requested for Cc1ccc(Cl)cc1Nc1nc(C(F)(F)F)ccc1C(=O)N/N=C/c1c(Cl)cccc1Cl
Output line: T

Input line: Recorded test call requested for O=C(Nc1cccc(C(F)(F)F)c1)C(Cl)Cl
Output line: F

Input line: Recorded test call requested for CC(=O)Nc1ccc2c(c1)C(N1CC3CCC(CC3)C1)c1ccccc1-2 (centres undefined)
Output line: F

Input line: Recorded test call requested for O=C(CCl)N1c2ccccc2Sc2ccc3ccccc3c21
Output line: T

Input line: Recorded test call requested for N#CN1CC[C@H](C(=O)Nc2ncc(-c3ccncc3)s2)C1
Output line: T

Input line: Recorded test call requested for O=C(c1ccc(Cl)cc1)c1no[n+]([O-])c1C(=O)c1ccc(Cl)cc1
Output line: F

Input line: Recorded test call requested for O=CNc1c(Cl)cc2c(c1Cl)Cc1cc([N+](=O)[O-])ccc1-2
Output line: F

Input line: Recorded test call requested for COCCOC(=O)NC(=O)Nc1ccc(C(=O)c2ccc(Cl)cc2)cc1
Output line: F

Input line: Recorded test call requested for O=C(Nc1cccc(Cl)c1)Nc1cc2ncncc2cc1OCc1cccc(F)c1
Output line: F

Input line: Recorded test call requested for c1ccc(OCCC[P+](c2ccccc2)(c2ccccc2)c2ccccc2)cc1
Output line: F

Input line: Recorded test call requested for CCCCCc1cc[n+](CC(=O)c2ccc(Cl)cc2)cc1
Output line: F

Input line: Recorded test call requested for Cc1ccc(S(=O)(=O)Nc2cccc3[nH]c(C(F)(F)F)nc23)cc1
Output line: T

Input line: Recorded test call requested for CCNC(=S)NN
Output line: F

Input line: Recorded test call requested for CNC(=S)Sc1ccc([N+](=O)[O-])cc1[N+](=O)[O-]
Output line: F

Input line: Recorded test call requested for O=S(=O)(NC1c2ccccc2Oc2ccccc21)c1cc(Cl)ccc1Cl
Output line: F

Input line: Recorded test call requested for CCOC(=O)c1c(C(F)(F)F)n([O-])c2ccc(OC)cc2[n+]1=O
Output line: F

Input line: Recorded test call requested for C[N+]1=C(/C=C/c2ccc(I)cc2)C(C)(C)c2ccccc21
Output line: F

----------
# Test system: MALME-3M melanoma
# test_summary: NCI-60 one-dose screen, 48 h
# test_context: 10 µM
# Experimental: Cells are grown in 96 well plates and exposed to the test compound for 48 hours. Compounds are tested at a single concentration, which is 10^-5 M for most compounds. The reported endpoint is percent growth (GI% or GIPRCNT), where numbers from 0 - 100% represent growth inhibition, and numbers from -100% - 0 represent cell death. For example, a value of 40 represents 60% growth inhibition. A value of 0 means no net growth occurred over the course of the experiment. […]
About 83,000 compounds went through this panel and 20% of them were active in at least one assay; those are over-represented in the sample as a whole. Active and inactive are the calls of the source. How the source made its calls: active means growth percent below 10; inactive means the rest.
Write down the outcome that applies. Available outcomes: y for active, n for inactive

Input line: Recorded test call requested for CCc1ccc(-c2nnc(COc3ccc(-c4nc5ccc(C)cc5[nH]4)cc3OC)o2)cc1
Output line: y

Input line: Recorded test call requested for COc1ccc2oc(=O)cc(C(c3ccc[nH]3)c3ccc[nH]3)c2c1
Output line: n

Input line: Recorded test call requested for NS(=O)(=O)c1ccc(N2N=C(c3ccc(-c4ccccc4)cc3)CC2c2ccc(Cl)cc2)cc1 (stereo not given)
Output line: n

Input line: Recorded test call requested for O=NN(CCCl)C(=O)NCc1ccc(-c2ccc(CNC(=O)N(CCCl)N=O)cc2)cc1
Output line: n

Input line: Recorded test call requested for Oc1ccccc1-c1nnc(Cn2c(Cc3cccc4ccccc34)nc3ccccc32)o1
Output line: n

----------
# Test system: NCI-H322M lung
# test_summary: NCI-60 one-dose screen, 48 h (100 = growth as untreated, 0 = no growth, -100 = all killed)
# test_context: 10 µM
This is part of a sample that, as a whole, favours compounds with a hit. Of some 83,000 tested, about 20% had one in any assay.
Give measured growth for each item. Keep answers brief.
Return type: number; implicit unit %.

Per the record, N=C(N)c1ccc(-c2ccc(-c3ccccc3)s2)s1 has growth of -86.2

Per the record, CCOC(=O)C1=C(Nc2ccc(OC)cc2)C(N)=NC1=N has growth of 50.2

Per the record, CCNC1(NC#N)CCCCC1 has growth of 113

Per the record, COc1cc(C2C(C#N)=C(c3c[nH]c4ccccc34)Nc3nc(N)[nH]c(=O)c32)cc(OC)c1OC (stereo unspecified) has growth of 104

Per the record, CC(C)C[C@H](NC(=O)Cn1ccc2ccccc2c1=O)B(O)O has growth of 102

Per the record, Nc1ccc(Sc2ccc3c4c2cccc4c(=O)n2c4ccccc4nc32)cc1 has growth of 61.8

----------
# Test system: OVCAR-4 ovarian
# test_summary: NCI-60 one-dose screen, 48 h
# test_context: 10 µM
Compounds without any hit were thinned out: in the full panel of roughly 83,000, 20% have a hit. Activity calls are given as the source filed them. Rule for the calls: active = growth percent below 10; inactive = the rest.
Write down the outcome that applies. Available outcomes: active, inactive

Input line: Recorded test call requested for Cc1ccc(S(=O)(=O)N2CCc3ccccc3CC2)cc1
Output line: inactive

Input line: Recorded test call requested for CCN1CCN(c2ccc(Nc3ncnc4c3nnn4CCc3cc(OC)cc(OC)c3)cc2)CC1
Output line: inactive

Input line: Recorded test call requested for COc1ccc(-c2cc(/C=C/C(=O)c3ccc(N)cc3)[nH]n2)cc1OC
Output line: inactive

Input line: Recorded test call requested for COc1cccc2c1C(=O)c1c(O)c3c(c(O)c1C2=O)C[C@@](O)(C(=O)COC(=O)c1cccnc1)C[C@@H]3OC1CC(N)C(O)C(C)O1 (stereo not given in full)
Output line: active

Input line: Recorded test call requested for COc1cc(-c2nc3cc(Cl)c(Cl)cc3[nH]2)ccc1OCC(=O)NN
Output line: inactive

Input line: Recorded test call requested for COc1ccc(C(=O)/C=C/c2cc(-c3ccc4c(c3)OCO4)n[nH]2)cc1OC
Output line: inactive

Input line: Recorded test call requested for O=NN(CC(=O)N/N=C/C=C\c1ccccc1)CC(=O)N/N=C/C=C/c1ccccc1
Output line: inactive

Input line: Recorded test call requested for Cc1ccc(C)c(S(=O)(=O)NC2c3ccccc3Oc3ccccc32)c1
Output line: inactive

Input line: Recorded test call requested for O=[N+]([O-])c1ccc(S(=O)(=O)OCCCCOS(=O)(=O)c2ccc([N+](=O)[O-])cc2)cc1
Output line: inactive

Input line: Recorded test call requested for O=c1c2cccc3c(Nc4ccc(Br)cn4)ccc(c32)c2nc3ccccc3n12
Output line: inactive

Input line: Recorded test call requested for CCOC(=O)c1sc(NC(=O)c2cc(OC)c(OC)c(OC)c2)nc1C
Output line: inactive

Input line: Recorded test call requested for COc1ccc(-c2nc(-c3nc4ccc(OC)cc4[nH]3)c3ccccn23)cc1
Output line: inactive

Input line: Recorded test call requested for CCN1CCOC1C(C)C (stereo not given)
Output line: inactive

Input line: Recorded test call requested for COc1cccc(C(=O)NNc2nc(N3CCOCC3)nc(N3CCN(C(c4ccccc4)c4ccccc4)CC3)n2)c1
Output line: inactive

Input line: Recorded test call requested for Cc1ccc(-c2cc(-c3cccc(Nc4ccnc5cc(Cl)ccc45)c3)nc3nc(N)[nH]c(=O)c23)cc1
Output line: inactive

Input line: Recorded test call requested for O=C(O)c1cc(C(F)(F)F)cc(C(F)(F)F)c1
Output line: inactive

Input line: Recorded test call requested for COc1cc2nc(Sc3sc(N)nc3C)n(-c3ccc(Oc4ccccc4)cc3)c(=O)c2cc1OC
Output line: inactive

Input line: Recorded test call requested for O=c1cc(CSc2nnc(-c3ccccc3)n2-c2ccc(F)cc2)c2ccc3ccccc3c2o1
Output line: inactive

Input line: Recorded test call requested for Nc1c(C(=O)NC2CCCCC2)sc2nc3c(cc12)C(=O)CCC3
Output line: inactive

Input line: Recorded test call requested for N=C(N)c1ccc(-c2ccc(-c3cccs3)s2)nc1
Output line: inactive

----------
Give measured growth for each item. Keep answers brief.
# System: NCI-H226 lung
# test_summary: NCI-60 one-dose screen, 48 h (100 = growth as untreated, 0 = no growth, -100 = all killed)
# test_context: 10 µM
About 83,000 compounds went through this panel and 20% of them were active in at least one assay; those are over-represented in the sample as a whole.
Return type: number; implicit unit %.

Entry Nc1c(CNCc2nnn(Cc3ccccc3)c2N)nnn1Cc1ccccc1 , tested on NCI-H226 lung, has a reported growth of 100

Entry FC(F)(F)c1ccc(-c2ncc(-c3ccc(C(F)(F)F)cc3)c(NCc3cc(C(F)(F)F)cc(C(F)(F)F)c3)n2)cc1 , tested on NCI-H226 lung, has a reported growth of 46.7

Entry Cc1nc2cc(-n3c(-c4ccc(F)cc4)nc4ccccc4c3=O)ccc2n1Cc1ccccc1 , tested on NCI-H226 lung, has a reported growth of 3.55

Entry CCOC(=O)[C@@H]1[C@H](c2ccccc2)[C@H]([N+](=O)[O-])[C@H](c2cn(-c3ccccc3)nc2C)N1Cc1ccccc1 , tested on NCI-H226 lung, has a reported growth of 66.6

Entry CN(C)CCCN(Cc1ccccc1O)C(=S)Nc1ccc(Cl)cc1 , tested on NCI-H226 lung, has a reported growth of 94.5

Entry CCOC(=O)C(CCC1=NC(C)(C)CC(C)O1)C(=O)OCC (stereo not given) , tested on NCI-H226 lung, has a reported growth of 95.1

Entry COc1cccc2c1O/C(=C\c1ccc([N+](=O)[O-])s1)C2=O , tested on NCI-H226 lung, has a reported growth of 97.1

Entry CCN(CC)CCCOC(=O)Nc1ccccc1Cl , tested on NCI-H226 lung, has a reported growth of 108

Entry COc1ccc(-c2[nH]ncc2/C=C/c2cc(C(F)(F)F)[nH]c(=O)n2)cc1 , tested on NCI-H226 lung, has a reported growth of 96.9

Entry CC(=O)Nc1ccc(Sc2ccc(NC(C)=O)cc2)cc1 , tested on NCI-H226 lung, has a reported growth of 101
